- System: Gaeumannomyces graminis var. tritici (Ggt)
- procedure.text: In vitro Assay: mycelial growth of Ggt on minimal media agar plates containing test compound
- Type: cell-based
- run.conditions: 1 ppm in minimal media agar; dark, 19-20° C., 4 to 5 days; diameter of mycelial growth
metric.name: In vitro (ppm) 1, Percent Inhibition

Value wanted: In vitro (ppm) 1, Percent Inhibition (Gaeumannomyces graminis var. tritici (Ggt)) of entry CN(C)NC(=O)c1c(Cl)cccc1[Si](C)(C)C 72%

* * *

- Test system: Gaeumannomyces graminis var. tritici (Ggt)
- procedure.text: In vitro Assay: mycelial growth of Ggt on minimal media agar plates containing test compound
- Format: cell-based
- run.conditions: Gaeumannomyces graminis; 0.1 ppm in minimal media agar; dark, 19-20° C., 4 to 5 days; diameter of mycelial growth; read-out: In vitro (ppm) 0.1, Percent Inhibition
metric.name: inhibition at 0.1 ppm (%)
One number for each entry, in %.

Answered cases to consult:
# line.notation, endpoint.result
measured = [
    ("CCNC(=O)c1c([Si](C)(C)C)ccc(OC)c1Cl", 50),
    ("CCN(CC)C(=O)c1c(C(F)F)cccc1[Si](C)(C)C", 7),
    ("CCN(CC)C(=O)c1c(C(F)F)ccc(F)c1[Si](C)(C)C", 53),
    ("CCNC(=O)c1c(Cl)cccc1[Si](C)(C)C", 100),
]

Report inhibition at 0.1 ppm for CCNC(=O)c1cc(NC)ccc1[Si](C)(C)C please. 22
